Reference source for all entries: patent US20220204601A1

biological target: T1, K280-ac protein fragment (human); experiment: ELISA on K280-ac coated at 250 ng/well, HRP anti-human IgG
T1 construct: also called mAC
T1 peptide: VQIINK(Ac)KLDLSN
Ends that are not written are not given here.
property.name: Absorbance at 450nm at 1ug/well

binder	Absorbance at 450nm at 1ug/well
ADEL-Y01h v04 antibody (antibody, V domains shown, Humanized antibody; It was detected with anti-human IgG; also called Y01h01v04) VH: EVQLQQSGPGLVKPSQTLSLTCAVSGDSITSGYWNWIRQSPSRGLEWLGYIRYSGRTYYNPSLKSRITINRDTSKNQFSLQLNSVTPEDTAVYYCASVYFTYWGQGTLVTVSS VL: DVVMTQSPLSLPVTLGQPASISCKSSQSLLDSDGKTYLNWFQQRPGQSPKRLISLVSKLDSGVPDRFSGSGSGTDFTLKISRVEAEDVGVYYCWQGSHFPYTFGQGTKLEIK	2.18

Pending binder:
*Q* Dear colleague, I am looking for the recorded Absorbance at 450nm at 1ug/well of the following binder: ADEL-Y01h01_v01 antibody (antibody, V domains shown, Humanized ADEL-Y01m; It was detected with anti-human IgG; also called ADEL-Y01h v01) VH: EVQLQESGPGLVKPSQTLSLTCTVSGDSITSGYWNWIRQPPGKGLEYIGYIRYSGRTYYNPSLKSRVTISRDTSKNQFSLKLSSVTAADTAVYYCASVYFTYWGQGTLVTVSS VL: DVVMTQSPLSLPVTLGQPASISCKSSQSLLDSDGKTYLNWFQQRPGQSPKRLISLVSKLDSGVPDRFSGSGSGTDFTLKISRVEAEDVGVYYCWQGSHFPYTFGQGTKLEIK
*A* 2.22
